// Diuretic activity lookup, one value per entry
system: Rattus norvegicus; assay: Compound administered orally at a dose of 81 mg/kg was evaluated for salidiuretic activity measured as sodium ion excretion in Rat; format: ADME, organism-based, Urine; set-up: dose 81 mg/kg, route oral; unit not given beside the values; conditions: in vivo, po
READOUT_LABEL: Diuretic activity

                                   compound  reading_qualifier  test_result
0  NS(=O)(=O)c1cc2c(cc1Cl)NCNS2(=O)=O [HYDROCHLOROTHIAZIDE]                  =          2.4
1                   Cc1cc(Cl)c(O)c(CN)c1.Cl                  =          2.4
2                 Cl.NCc1c(O)c(Cl)cc(Cl)c1O                  =          1.5
3           CCC(C)(C)c1cc(Cl)c(O)c(CN)c1.Cl                  =          2.9
4              Br.Cc1c(O)c(CN)c(Cl)c(C)c1Cl                  <          0.3
5                COc1cc(Cl)c(Cl)c(CN)c1O.Cl                  =          1.5
6  NS(=O)(=O)c1cc(C(=O)O)c(NCc2ccco2)cc1Cl [FUROSEMIDE]                  =          2.9
7                  CCCc1cc(I)c(O)c(CN)c1.Cl                  =          2.4
8                  Cc1c(Cl)cc(I)c(O)c1CN.Cl                  =          2.9

====

system: Canis familiaris; assay: Compound administered intravenously was evaluated for salidiuretic activity measured as sodium ion excretion in Dog; Value ranges from 100-249; assay type: ADME, organism-based, Canis lupus familiaris, Urine; details: in vivo, iv
Item-by-item account of Diuretic activity
READOUT_LABEL: Diuretic activity

                      smiles_code  test_result
0  CCOC(=O)c1cc(Cl)c(O)c(CN)c1.Cl          100
1   CCCC(=O)c1cc(C)c(O)c(CN)c1.Cl          100
2            CCc1ccc(O)c(CN)c1.Cl          100
3    Cc1c(Cl)cc(C(C)C)c(O)c1CN.Cl          100

====

system: Rattus norvegicus; assay: Evaluated for salidiuretic activity measured as sodium ion excretion in Rat, administered orally at a dose of 50 mg/kg; type: functional, Urine; details: route oral
READOUT_LABEL: Diuretic activity

In [3]: df
Out[3]:
                                    compound  reading_qualifier  test_result
 0             CCOC(=O)c1cc(I)c(O)c(CN)c1.Cl                  =          1.8
 1            Cl.NCc1c(O)c(Cl)c(Cl)c(Cl)c1Cl                  =          3.3
 2                CC(C)(C)c1ccc(O)c(CN)c1.Cl                  =          1.2
 3      C=C(CC)C(=O)c1ccc(OCC(=O)O)c(Cl)c1Cl                  <          0.3
 4  CCC(C)c1cc(Cl)c(O)c(CN)c1.Cl (stereo not drawn)                  =          3.6
 5          CCOc1c(Cl)c(O)c(CN)c(OCC)c1Cl.Cl                  =          2.4
 6                           NCc1cc(Cl)ccc1O                  =          1.2
 7                COc1cc(Cl)c(Cl)c(CN)c1O.Cl                  =          1.2
 8              Cc1c(Cl)c(C)c(CN)c(O)c1Cl.Cl                  =          3.3
 9                CC(C)c1cc(I)c(O)c(CN)c1.Cl                  =          3.6
10                      CCc1ccc(O)c(CN)c1.Cl                  =          1.2
11                   Cc1cc(C)c(O)c(CN)c1C.Cl                  =          1.8
12                     Cl.NCc1cc(Cl)cc(I)c1O                  =          1.8
13              CC(C)Cc1cc(Cl)c(O)c(CN)c1.Cl                  =          2.4
14              Br.Cc1c(O)c(CN)c(Cl)c(C)c1Cl                  <          0.2
15                  Cc1cc(Cl)c(O)c(CN)c1C.Cl                  =          2.4
16            CC(C)(C)c1cc(Cl)c(O)c(CN)c1.Cl                  =          3.9
17                   Cc1cc(Cl)c(O)c(CN)c1.Cl                  =          1.8
18                       NCc1c(O)ccc(Cl)c1Cl                  =          1.2
19           CCC(C)(C)c1cc(Cl)c(O)c(CN)c1.Cl                  =          2.4
20                CCc1c(Cl)cc(CN)c(O)c1Cl.Cl                  =          1.8
21               CC(C)Cc1cc(I)c(O)c(CN)c1.Cl                  =          1.2
22            CC(C)(C)c1cc(Br)c(O)c(CN)c1.Cl                  =          3.9
23  NS(=O)(=O)c1cc2c(cc1Cl)NCNS2(=O)=O [HYDROCHLOROTHIAZIDE]                  =          1.8
24                 CCCCc1cc(I)c(O)c(CN)c1.Cl                  <          0.2
25                 Cl.NCc1c(O)c(Cl)cc(Cl)c1F                  =          3.3
26                  Cc1c(Cl)cc(I)c(O)c1CN.Cl                  =          2.4
27             CC(C)(C)c1cc(F)c(O)c(CN)c1.Cl                  =          3.3
28                Cl.NCc1c(O)c(Cl)cc(Cl)c1Cl                  =          2.4
29            COc1c(Cl)c(OC)c(CN)c(O)c1Br.Cl                  =          3.6
30                Cl.NCc1cc(Cl)c(Cl)c(Cl)c1O                  =          3.3
31                    Cc1cc(C)c(CN)c(O)c1.Cl                  <          0.2
32                Cc1c(C)c(C)c(CN)c(O)c1C.Cl                  =          2.4
